The measurements presented in this section are drawn from patent US20230002496A1.

tested.system: T1, human GM-CSFRα, full length on cells (human, UniProt P15509 23-400)
T1 sequence: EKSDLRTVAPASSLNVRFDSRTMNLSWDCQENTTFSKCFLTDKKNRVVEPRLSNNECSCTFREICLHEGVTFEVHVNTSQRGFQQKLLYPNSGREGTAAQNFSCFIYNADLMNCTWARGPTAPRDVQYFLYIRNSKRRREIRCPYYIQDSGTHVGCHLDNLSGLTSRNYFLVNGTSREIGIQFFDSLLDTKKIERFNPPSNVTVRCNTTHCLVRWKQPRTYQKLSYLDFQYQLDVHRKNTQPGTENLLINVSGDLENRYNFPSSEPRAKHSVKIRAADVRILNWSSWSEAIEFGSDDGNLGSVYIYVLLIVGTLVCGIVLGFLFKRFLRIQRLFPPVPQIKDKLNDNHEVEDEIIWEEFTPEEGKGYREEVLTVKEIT
experiment.description: cell-based or functional assay
Label true when IC50, TF-1 cell proliferation is strictly below 0.2 µg/mL; at or above that, label false.

For this binder, is IC50, TF-1 cell proliferation lower than 0.2 µg/mL? E35-scFv HE31A (scFv, V domains shown) VH: QMQLVQSGAEVKKPGASVKVSCKVSGYTLTALSIHWVRQAPGKGLEWMGGFDPEDGETIYAQKFQGRVTMTGDTSTDTAYLELSSLRSEDTALYYCATGRYTSLATTYGFDYWGQGTLVTVSS VL: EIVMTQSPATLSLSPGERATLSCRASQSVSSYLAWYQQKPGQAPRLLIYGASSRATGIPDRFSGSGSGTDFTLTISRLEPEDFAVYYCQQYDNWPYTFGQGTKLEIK
false

Report whether reported IC50, TF-1 cell proliferation is lower than 0.2 µg/mL (strictly) for E35-scFv LA51Q (scFv, V domains shown) VH: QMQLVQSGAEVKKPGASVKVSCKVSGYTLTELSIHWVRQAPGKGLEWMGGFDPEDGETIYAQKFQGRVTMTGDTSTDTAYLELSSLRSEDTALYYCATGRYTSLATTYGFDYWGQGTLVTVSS VL: EIVMTQSPATLSLSPGERATLSCRASQSVSSYLAWYQQKPGQAPRLLIYGQSSRATGIPDRFSGSGSGTDFTLTISRLEPEDFAVYYCQQYDNWPYTFGQGTKLEIK
false

Lab log: compare recorded IC50, TF-1 cell proliferation with 0.2 µg/mL; is it strictly lower for E35-scFv HT28E (scFv, V domains shown) VH: QMQLVQSGAEVKKPGASVKVSCKVSGYELTELSIHWVRQAPGKGLEWMGGFDPEDGETIYAQKFQGRVTMTGDTSTDTAYLELSSLRSEDTALYYCATGRYTSLATTYGFDYWGQGTLVTVSS VL: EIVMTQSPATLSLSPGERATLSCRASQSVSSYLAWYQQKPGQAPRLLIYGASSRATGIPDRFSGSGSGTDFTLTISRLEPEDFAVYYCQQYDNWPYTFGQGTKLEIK ?
true

Threshold test, IC50, TF-1 cell proliferation < 0.2 µg/mL: E35-scFv HE31P (scFv, V domains shown) VH: QMQLVQSGAEVKKPGASVKVSCKVSGYTLTPLSIHWVRQAPGKGLEWMGGFDPEDGETIYAQKFQGRVTMTGDTSTDTAYLELSSLRSEDTALYYCATGRYTSLATTYGFDYWGQGTLVTVSS VL: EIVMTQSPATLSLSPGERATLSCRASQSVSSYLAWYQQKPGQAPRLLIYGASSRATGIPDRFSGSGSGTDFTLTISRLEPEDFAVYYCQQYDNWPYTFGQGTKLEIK
true

Record E35-scFv LY32K (scFv, V domains shown) VH: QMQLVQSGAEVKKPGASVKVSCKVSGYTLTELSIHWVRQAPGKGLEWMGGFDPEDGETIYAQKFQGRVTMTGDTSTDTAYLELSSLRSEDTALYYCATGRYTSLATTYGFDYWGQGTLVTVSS VL: EIVMTQSPATLSLSPGERATLSCRASQSVSSKLAWYQQKPGQAPRLLIYGASSRATGIPDRFSGSGSGTDFTLTISRLEPEDFAVYYCQQYDNWPYTFGQGTKLEIK : is its IC50, TF-1 cell proliferation strictly below 0.2 µg/mL?
false

Continuing:
Threshold test, IC50, TF-1 cell proliferation < 0.2 µg/mL: E35-scFv LS52R (scFv, V domains shown) VH: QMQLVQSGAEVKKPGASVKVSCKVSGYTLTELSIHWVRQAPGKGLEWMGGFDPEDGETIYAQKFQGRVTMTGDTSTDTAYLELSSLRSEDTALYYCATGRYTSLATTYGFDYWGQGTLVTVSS VL: EIVMTQSPATLSLSPGERATLSCRASQSVSSYLAWYQQKPGQAPRLLIYGARSRATGIPDRFSGSGSGTDFTLTISRLEPEDFAVYYCQQYDNWPYTFGQGTKLEIK
true

Quick check: IC50, TF-1 cell proliferation of E35-scFv LA51K (scFv, V domains shown) VH: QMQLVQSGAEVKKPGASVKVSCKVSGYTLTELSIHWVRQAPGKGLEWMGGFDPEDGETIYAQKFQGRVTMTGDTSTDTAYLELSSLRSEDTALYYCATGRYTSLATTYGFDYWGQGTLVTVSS VL: EIVMTQSPATLSLSPGERATLSCRASQSVSSYLAWYQQKPGQAPRLLIYGKSSRATGIPDRFSGSGSGTDFTLTISRLEPEDFAVYYCQQYDNWPYTFGQGTKLEIK under 0.2 µg/mL?
true

Please determine if E35-scFv LS26M (scFv, V domains shown) VH: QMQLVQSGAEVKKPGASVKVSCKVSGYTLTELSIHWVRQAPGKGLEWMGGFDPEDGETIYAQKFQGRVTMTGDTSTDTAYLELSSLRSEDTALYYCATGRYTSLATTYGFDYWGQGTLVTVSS VL: EIVMTQSPATLSLSPGERATLSCRAMQSVSSYLAWYQQKPGQAPRLLIYGASSRATGIPDRFSGSGSGTDFTLTISRLEPEDFAVYYCQQYDNWPYTFGQGTKLEIK is below 0.2 µg/mL in terms of IC50, TF-1 cell proliferation.
true

Please check: IC50, TF-1 cell proliferation for E35-scFv LS31W (scFv, V domains shown) VH: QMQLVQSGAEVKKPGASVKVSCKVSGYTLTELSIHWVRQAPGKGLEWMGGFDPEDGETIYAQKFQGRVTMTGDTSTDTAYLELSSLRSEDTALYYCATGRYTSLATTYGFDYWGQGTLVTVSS VL: EIVMTQSPATLSLSPGERATLSCRASQSVSWYLAWYQQKPGQAPRLLIYGASSRATGIPDRFSGSGSGTDFTLTISRLEPEDFAVYYCQQYDNWPYTFGQGTKLEIK , strictly under 0.2 µg/mL or not?
false

In plain terms, does E35-scFv LS30C (scFv, V domains shown) VH: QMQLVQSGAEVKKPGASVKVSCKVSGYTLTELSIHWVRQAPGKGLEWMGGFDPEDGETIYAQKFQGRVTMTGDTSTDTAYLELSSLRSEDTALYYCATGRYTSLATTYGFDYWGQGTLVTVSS VL: EIVMTQSPATLSLSPGERATLSCRASQSVCSYLAWYQQKPGQAPRLLIYGASSRATGIPDRFSGSGSGTDFTLTISRLEPEDFAVYYCQQYDNWPYTFGQGTKLEIK come in under 0.2 µg/mL for IC50, TF-1 cell proliferation?
false
